- System: MDA MB 435 (Metastic Human Breast Cancer Cell Line)
- ASSAY_COMMENT: Inhibition of DNA synthesis (3H-TdR uptake) / proliferation, MB-435
- Format: cell-based
- CONDITIONS: Homo sapiens, MDA-MB-435; MB-435, 5 μg/mL, 48 h
- Procedure: […] Plates were cultured for 48 hours at 37° C., 5% CO2. […] Percent viability and percent suppression of each treatment group were calculated. With respect to the data shown in the Tables below, the data is arranged from greatest percent inhibition of DNA synthesis to lowest. […] The cells were cultured for 48 hours, pulsed 8 hours with tritiated thymidine, harvested and counted. […]
Threshold check on inhibition at 5 µg/mL: at or above 20% gives met, strictly below gives not met.

{"columns": ["MOLECULE", "TARGET_SYSTEM", "ASSIGNED_CATEGORY"],
 "data": [
  ["CC(=O)Oc1c(C)c2c3c(c1C)CCCN3CCC2", "MDA MB 435 (Metastic Human Breast Cancer Cell Line)", "met"],
  ["Cc1cc2c(c(C)c1O)C(C)CN2C(=O)C(C)C (stereo not drawn) [Compound 11b]", "MDA MB 435 (Metastic Human Breast Cancer Cell Line)", "met"],
  ["COc1c(C)cc2c(c1C)C(C)CN2C(=O)C(C)C (stereo not drawn)", "MDA MB 435 (Metastic Human Breast Cancer Cell Line)", "not met"],
  ["CC(=O)Oc1c(C)cc2c(c1C)C(C)CN2C(=O)C(C)C (stereo not drawn) [Compound 12b]", "MDA MB 435 (Metastic Human Breast Cancer Cell Line)", "met"],
  ["Cc1c(C)c2c(c(C)c1O)CC1(CC1)O2", "MDA MB 435 (Metastic Human Breast Cancer Cell Line)", "not met"],
  ["Cc1cc2c(C)c(O)c(C)c(C)c2o1 [Compound 33, 5-Hydroxy-2,4,6,7-tetramethylbenzofuran]", "MDA MB 435 (Metastic Human Breast Cancer Cell Line)", "not met"],
  ["CC(=O)N1CC(C)(C)c2c1cc(C)c(O)c2C", "MDA MB 435 (Metastic Human Breast Cancer Cell Line)", "not met"],
  ["Cc1cc2c(c(C)c1O)C(C)(C)CN2C(=O)C(C)(C)C", "MDA MB 435 (Metastic Human Breast Cancer Cell Line)", "not met"],
  ["CC(=O)N1CC(C)(C)c2c(C)c(O)c(C)c(C)c21 [Compound 31b]", "MDA MB 435 (Metastic Human Breast Cancer Cell Line)", "not met"],
  ["CC(C)(C)c1cc2c(c(C(C)(C)C)c1O)CC(=O)O2", "MDA MB 435 (Metastic Human Breast Cancer Cell Line)", "met"],
  ["Cc1c(O)c(C)c2c(C)cn(C(=O)C(C)(C)C)c2c1C", "MDA MB 435 (Metastic Human Breast Cancer Cell Line)", "met"]
]}

----------
- Tested on: HL-60 (Human Promyelocytic Leukemia Cell Line)
- ASSAY_COMMENT: Inhibition of DNA synthesis (3H-TdR uptake) / proliferation, HL-60
- Type: cell-based
- CONDITIONS: Homo sapiens; HL-60, 10 μg/mL, 48 h
Reported inhibition at 10 µg/mL values for the following molecules.

{"columns": ["MOLECULE", "TARGET_SYSTEM", "inhibition at 10 µg/mL"],
 "data": [
  ["CC(=O)Oc1c(C)c2c3c(c1C)CCCN3CCC2", "HL-60 (Human Promyelocytic Leukemia Cell Line)", "89%"],
  ["Cc1cc2c(c(C)c1O)C(C)CN2C(=O)C(C)C (stereo not drawn) [Compound 11b]", "HL-60 (Human Promyelocytic Leukemia Cell Line)", "0%"],
  ["Cc1cc2c(c(C)c1O)C(C)(C)CN2C(=O)C(C)(C)C", "HL-60 (Human Promyelocytic Leukemia Cell Line)", "33%"]
]}

----------
- System: MCF-7 McGuire (Estrogen Responsive Human Breast Cancer Cell Line)
- ASSAY_COMMENT: Inhibition of DNA synthesis (3H-TdR uptake) / proliferation, MCF-7
- Type: cell-based
- CONDITIONS: Homo sapiens, MCF7; MCF-7, 5 μg/mL, 48 h
QUANTITY_KIND: inhibition at 5 µg/mL (%)

{"columns": ["MOLECULE", "REPORTED"],
 "data": [
  ["CC(=O)Oc1c(C)cc2c(c1C)C(C)CN2C(=O)C(C)C (stereo not shown) [Compound 12b]", 38],
  ["Cc1cc2c(c(C)c1O)C(C)CN2C(=O)C(C)C (stereo not shown) [Compound 11b]", 47],
  ["CC(=O)Oc1c(C)c2c3c(c1C)CCCN3CCC2 [Compound 6, 9-Acetoxy-8,10-dimethyljulolidine]", 13],
  ["CC(C)(C)c1cc2c(c(C(C)(C)C)c1O)CC(=O)O2 [Compound 24]", 25]
]}
